# protocolNotes: NCI Yeast Anticancer Drug Screen. Data for the bub3 strain (AID 167)
# measurementContext: S. cerevisiae bub3 mutant strain, at 5.0 µM (retest, dose inferred, filed as 0.5), stronger effect = higher value
Compounds without any hit were thinned out: in the full panel of roughly 79,000, 15% have a hit.
measurementLabel: growth inhibition (%)
Give bare numbers, in %.

Below: 10 molecules and their reported growth inhibition.
| molecule | measurementLabel | measuredValue |
| --- | --- | --- |
| CCCCCCCCCCCC(=O)OCCN(CC)CC | growth inhibition | -3 |
| CS[C@H]1CC[C@H]2[C@@H]3CCc4cc(O)ccc4[C@H]3CC[C@]12C | growth inhibition | 12 |
| O=C(O)/C=C/c1ccc2c(c1)CC1(Cc3ccccc3C1)C2 | growth inhibition | 85 |
| NC(=O)CC1CCC(c2ccccc2)CC1 (stereo unspecified) | growth inhibition | -12 |
| O=S(=O)(C#Cc1ccccc1)c1ccccc1 | growth inhibition | 3 |
| CCCCP(CCCC)(CCCC)=C(C(=O)OC)C(C(=O)OC)=C1SC(C(=O)OC)=C(C(=O)OC)S1 | growth inhibition | 79 |
| COc1ccc2c(ccc[n+]2CC(=O)c2ccc(-c3ccccc3)cc2)c1 | growth inhibition | 3 |
| Clc1ccc(SSN2CCOCC2)cc1 | growth inhibition | 4 |
| O=c1cc(-c2ccccc2)oc2ccc(-c3ccc4oc(-c5ccccc5)cc(=O)c4c3)cc12 | growth inhibition | 5 |
| O=C(O)c1ccccc1-c1c2ccc(=O)c(Br)c-2oc2c(Br)c(O)ccc12 | growth inhibition | -1 |

Now examine the next entry.
Ask: growth inhibition lookup needed for `O=C(O)/C(Cl)=C(\Cl)C(=O)Nc1c(Cl)cccc1Cl` , thanks.
Result: 3

Just for reference, PubChem BioAssay (NCI) is where these values come from.
